System: Escherichia coli TOP10
Assay: shrunken log2 fold change of peptide-encoding DNA abundance (4.5 h post-induction vs induction); higher = less antimicrobial activity (less host growth inhibition)
Settings: time post-induction: 4.5 h; library: site-saturation at positions 5, 18, 19, 20
Classify as follows. Reported shrunken log2 fold change greater than or equal to 0.04: true (1). Reported shrunken log2 fold change below: false (0).

As a guide, the following entries are already answered.
>>> df
          monomer_sequence  label_value
0  RRIRVRPPRLPRPRPRPGAKPRP     true (1)
1  RRIRRRPPRLPRPRPRPSQLPRP     true (1)
2  RRIRVRPPRLPRPRPRPQKQPRP    false (0)
3  RRIRFRPPRLPRPRPRPGMFPRP    false (0)

Item RRIRIRPPRLPRPRPRPPANPRP with shrunken log2 fold change of 0.04 or above?
false (0)

Follow-up entry: RRIRPRPPRLPRPRPRPYIEPRP
false (0)

Query RRIRYRPPRLPRPRPRPAREPRP next
false (0)

Repeat with RRIRLRPPRLPRPRPRPMPMPRP
true (1)

Item: RRIRARPPRLPRPRPRPQPNPRP
true (1)

And RRIRARPPRLPRPRPRPCNYPRP ?
false (0)

Subsequent entry: RRIRDRPPRLPRPRPRPEHRPRP
false (0)

Note, next up: RRIRHRPPRLPRPRPRPEEIPRP
false (0)

Do the same for RRIRDRPPRLPRPRPRPAQYPRP please
false (0)

Okay, and RRIRTRPPRLPRPRPRPIANPRP ?
true (1)

Next record, please: RRIRGRPPRLPRPRPRPPYNPRP
false (0)

Okay, and RRIRQRPPRLPRPRPRPLGSPRP ?
true (1)

Also RRIRVRPPRLPRPRPRPTGWPRP ?
true (1)

// repeat for RRIRARPPRLPRPRPRPHTPPRP and report
true (1)

Would you mind doing RRIRHRPPRLPRPRPRPMKYPRP as well?
false (0)

RRIRPRPPRLPRPRPRPAEYPRP , same question.
false (0)

Also, RRIRERPPRLPRPRPRPMVQPRP please.
false (0)

Similarly, RRIRKRPPRLPRPRPRPGRLPRP ?
true (1)

###

Tested on: Escherichia coli TOP10;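 also: peptides expressed intracellularly from a pBAD plasmid library in pooled LB shake-flask culture, induced with 0.3% L-arabinose, DNA abundance read by NGS, three biological replicates, DESeq2 with apeglm shrinkage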
Experiment: shrunken log2 fold change of peptide-encoding DNA abundance (4.5 h post-induction vs induction); higher = less antimicrobial activity (less host growth inhibition)
Settings: time post-induction: 4.5 h; library: site-saturation at positions 5, 18, 19, 20
Tag: yes (1) if measured shrunken log2 fold change is not below 0.06, no (0) if it is.

          monomer_sequence  label_value
0  RRIRFRPPRLPRPRPRPRIPPRP       no (0)

Has RRIRVRPPRLPRPRPRPYCHPRP a recorded shrunken log2 fold change greater than or equal to 0.06?
no (0)

What about RRIRMRPPRLPRPRPRPPAFPRP ?
yes (1)

Can you check RRIRCRPPRLPRPRPRPITKPRP next?
no (0)

One more sequence: RRIRVRPPRLPRPRPRPQSGPRP
no (0)

Subsequent entry: RRIRKRPPRLPRPRPRPNTFPRP
no (0)

Also RRIRQRPPRLPRPRPRPIQVPRP ?
no (0)

And what about the sequence RRIRKRPPRLPRPRPRPCPLPRP ?
no (0)

Ok, now RRIRHRPPRLPRPRPRPQKKPRP
no (0)

How about RRIRHRPPRLPRPRPRPLPWPRP ?
yes (1)

Continue with RRIRVRPPRLPRPRPRPPHPPRP
yes (1)

Follow-up item: RRIRARPPRLPRPRPRPTSMPRP
yes (1)

Also need RRIRMRPPRLPRPRPRPSLDPRP , thanks.
yes (1)

Record: RRIRTRPPRLPRPRPRPHPAPRP
yes (1)

And for RRIRHRPPRLPRPRPRPQHEPRP ?
no (0)
